This collection of values is drawn from ChEMBL document CHEMBL1134790.

target: Adenosine receptor A1 (Rattus norvegicus)
Sequence (P25099 whole entry): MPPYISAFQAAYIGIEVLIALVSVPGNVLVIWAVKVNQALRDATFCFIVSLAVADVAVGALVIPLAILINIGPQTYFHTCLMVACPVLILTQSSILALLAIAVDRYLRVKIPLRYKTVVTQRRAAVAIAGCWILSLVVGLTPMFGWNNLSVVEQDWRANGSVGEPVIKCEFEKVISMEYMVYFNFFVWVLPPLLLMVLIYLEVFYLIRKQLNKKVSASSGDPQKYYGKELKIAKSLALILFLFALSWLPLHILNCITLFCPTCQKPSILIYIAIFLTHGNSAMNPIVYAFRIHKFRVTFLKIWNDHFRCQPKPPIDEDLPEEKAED
quantity: Ki (nM)
Give a bare numeral; the unit nM is implied.

Identify the reported Ki for the following entry. CCNC(=O)[C@H]1OC(n2cnc3c(N)nc(C#CNCCc4ccc(F)cc4)nc32)[C@H](O)[C@@H]1O (stereo not given in full) 1180

Supply measured Ki of Nc1nc(CO)nc2c1ncn2C1O[C@H](CO)[C@@H](O)[C@H]1O (stereo not given in full) in your reply. 10.1

Supply measured Ki of CCC(CC)COc1nc(N)c2ncn(C3O[C@H](CO)[C@@H](O)[C@H]3O)c2n1 (stereo not given in full) in your reply. 2700

Give Ki for CCc1nc(N)c2ncn(C3O[C@H](CO)[C@@H](O)[C@H]3O)c2n1 (stereo not given in full) 186

Given Nc1nc(OCCc2ccc(F)cc2)nc2c1ncn2[C@@H]1O[C@H](CO)[C@@H](O)[C@H]1O , respond with its Ki. 500

Note down Ki recorded for CCOc1nc(N)c2ncn([C@@H]3O[C@H](CO)[C@@H](O)[C@H]3O)c2n1 1300

Name the recorded Ki of the item COCc1nc(N)c2ncn(C3O[C@H](CO)[C@@H](O)[C@H]3O)c2n1 (stereo not given in full) in your answer. 38.1

Look up Ki of CCNC(=O)[C@H]1OC(n2cnc3c(N)nc(CC4CCC(CO)CC4)nc32)[C@H](O)[C@@H]1O (stereo not given in full) and report it. 0.84

Assign Ki to the following record: Cc1ccc(CCOc2nc(N)c3ncn(C4O[C@H](CO)[C@@H](O)[C@H]4O)c3n2)cc1 (stereo not given in full) 49

Indicate its recorded Ki; the molecule in question is Nc1nc(OCc2ccccc2)nc2c1ncn2C1O[C@H](CO)[C@@H](O)[C@H]1O (stereo not given in full) 600

Output Ki of Nc1nc(OCCCCc2ccccc2)nc2c1ncn2[C@@H]1O[C@H](CO)[C@@H](O)[C@H]1O 2400

Retrieve Ki measured for COc1ccccc1CCOc1nc(N)c2ncn(C3O[C@H](CO)[C@@H](O)[C@H]3O)c2n1 (stereo not given in full) and print it. 190

Output measured Ki for this item: Cc1cccc(CCOc2nc(N)c3ncn(C4O[C@H](CO)[C@@H](O)[C@H]4O)c3n2)c1 (stereo not given in full) 140

====

As a worked illustration, we turn to pKi data collected for UniProt:P25099.
Convention used: pKi is expressed as -log10 of the molar concentration.

Worked cases, pKi given:
Jot down pKi (UniProt:P25099) of Nc1nc(OCCC2CCCC2)nc2c1ncn2C1O[C@H](CO)[C@@H](O)[C@H]1O (some centres not stated) . 5.80

Determine reported pKi for C[C@@H](CCOc1nc(N)c2ncn(C3O[C@H](CO)[C@H](O)[C@@H]3O)c2n1)c1ccccc1 (some centres not stated) ; test system: UniProt:P25099. 5.80

Find pKi for CCNC(=O)[C@H]1OC(n2cnc3c(N)nc(C#CN(C)CCc4ccccc4)nc32)[C@H](O)[C@@H]1O (some centres not stated) on UniProt:P25099 and write it down. 4.92

Please tell me the measured pKi for COc1cc(CCOc2nc(N)c3ncn(C4O[C@H](CO)[C@@H](O)[C@H]4O)c3n2)cc(OC)c1OC (some centres not stated) ; system: UniProt:P25099. 5.30

Enter measured pKi, system UniProt:P25099, for the compound shown: COc1ccc(CCOc2nc(N)c3ncn(C4O[C@H](CO)[C@@H](O)[C@H]4O)c3n2)cc1 (some centres not stated) 6.32

Continuing:
Report its pKi with UniProt:P25099 as the test system: CC(C)(C)OC(=O)C1CCCN1C[C@@H](O)[C@H](Cc1ccccc1)NC(=O)[C@H](CC(N)=O)NC(=O)OCc1ccccc1 (some centres not stated) 6.89

State the measured pKi (UniProt:P25099) of Nc1nc(OCC2CCCCC2)nc2c1ncn2C1O[C@H](CO)[C@@H](O)[C@H]1O (some centres not stated) 5.52
